assay: Inhibition of serine protease (unknown origin); set-up: species or system Homo sapiens

smiles-string	Ki / nM
C[C@H](C[Si](O)(O)[C@H](Cc1ccccc1)NC(=O)[C@@H]1CCCN1)C(N)=O	107
